- METHOD_DESCRIPTION: soluble fraction after stress (log2 fold change); higher = more stays soluble; pooled small domains, quantitative proteomics;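 also: 20 min heating vs room temperature control held 20 min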
- RUN_CONDITIONS: stress: 75 degC
METRIC_NAME: soluble fraction (log2)
No unit in the answer, please; the number alone is enough.

[[record]]
sequence_record = "HMRGAIKMAEEQMAGHKKIGSISGTAPTQGELEKKFAMAAAQMGARYYVITGLSNNNYAFGNADIY"
reported = -0.669


Quick note, soluble fraction (log2) for `HMQWQPSEEAMQRLEQHGIPRAFSFSQLDAFVLQGQEQGSNRNDWNTRFFRFIKNQWVYAQN` landed at -2.59

Quick note, soluble fraction (log2) for `HMEMLQRFIFLENVSSTQVESAIKELHPNLNLKRVKLSFPGADTVLLKGPKQDLELAEELIRHLDRSE` landed at -0.652

Quick note, soluble fraction (log2) for `HMRDPVDKDNYLGDWDKNKTYPAGYVMTFGDKNYLALQEVPAGTKPGATDPDPFWVLDTGKTLKD` landed at -0.14

###

# soluble fraction (log2) per entry
- METHOD_DESCRIPTION: soluble fraction after stress (log2 fold change); higher = more stays soluble; pooled small domains, quantitative proteomics
- RUN_CONDITIONS: stress: 75 degC
No unit in the answer, please; the number alone is enough.

[[record]]
sequence_record = "HMAQRFDLGDKLNPQSSEFEYLGTSSRTGVSTYRYKNVPTQLFFGRQIGDIVVGVRRGMITLTIYNL"
metric_name = "soluble fraction (log2)"
reported = 0.0868


Quick note, soluble fraction (log2) for `HMHPQISVEGVLPLKEAVEFVEREIISHAYSRYRATREVARHLGIDPSTVLRKAAKYGITVEPGKN` landed at -1.07

Quick note, soluble fraction (log2) for `HMTFNLDVDGDDQVTALGDGLMIIRKLFGATFAGDALTNKAISPDATRTTDEIHAYIEKGITSGVLD` landed at -0.403

Quick note, soluble fraction (log2) for `HMSGGIVRLAVKPWGEVFVDGASRGITPPLKQLTLDAGVHRIEIRNPAGPSWTKDVDVVAGQPTTVSHRF` landed at -0.494

Quick note, soluble fraction (log2) for `HMGHKKLTIELQDEIIVLPKELEKYNLTVSDDKTSLIYTYKSRGEKTGITDLLRDIKDAGLRLKDLITEQ` landed at 0.284

Quick note, soluble fraction (log2) for `HMVAADTVQVPDVTGKTVADAKQALISAGLQVGTVTAKDGKETANTILETSPAAGTSVDKGSKVNLVYSTG` landed at 0.00808

Quick note, soluble fraction (log2) for `HMKWGDTPTVEVPNLIGMKKKDLQTQLVDLKLDISGDGEKVIKQSPEAGAKVKEGSKIRIYFG` landed at -0.332

Quick note, soluble fraction (log2) for `HMNTWVEIFRAEDQGQIRDASLVLLAVKVAHRVDMNSSSAPWSLMVPAQDQQRAHHELTTYWQENAH` landed at -2.03

Quick note, soluble fraction (log2) for `HMAVSSHAVKQRIRSLIQAEDPAAPLSDEALRLALSALGVDVSRRVIAKYRAELNIPSSSQRKK` landed at -0.823

Quick note, soluble fraction (log2) for `HMLKHEEIQEYIKEQINSGTWKPKAKLPSLRDMSELFSTSIGTVLTAYSALEKKHIIYSIPRSGYYVLG` landed at -4.48

Quick note, soluble fraction (log2) for `HMKVELSENEKIIYDLLSNQEVLLSEIKDKAELSNKAWDKSTKSLRKLGLVIVEKKDDNIYISKS` landed at -0.101

Quick note, soluble fraction (log2) for `HMTVVIKVQASQLESWKSSAGTEIKAKLIAVEDEKTYLFVTETGKTIRATAAQLDESSVSRARKLAGL` landed at -2.37

Quick note, soluble fraction (log2) for `HMQSVPELDQQFKIAIENNDFIKLAQLKEQGYHPSKEVMQSLSNTTPNNTIIAVQKIFGLKA` landed at 0.546

Quick note, soluble fraction (log2) for `HMDNPVPVIITDQNFQPQLWKNVGVPTDTLFHELSAANQRKLENLMKTMIQTPLTDNGKISGYAFYSK` landed at -0.00686

Quick note, soluble fraction (log2) for `HMLPIGSSREQVISSLNKMHQDYKEEGNFIYAGYFKQGLPLVPSPRISIALQFNETAHLEKIDATLNYV` landed at -0.343

Quick note, soluble fraction (log2) for `HMLNMTLGDRIRSRREELRMSQEELATRLGYKSRSTIAKIESGENDLTQSKIVAFAEALSTTARWLLDY` landed at -1.88

Quick note, soluble fraction (log2) for `HMTVSLTDVPFVPEILDRLERPELDVLLAILNGATNTFDLAAKTGRSRDELDEVLDRLTTLGLIER` landed at -0.532

# credit: the domain aggregation screens of Martell et al. (2025)
